SYSTEM_NAME: recombinant human MAO-A (Homo sapiens)
Sequence (P21397 1-527): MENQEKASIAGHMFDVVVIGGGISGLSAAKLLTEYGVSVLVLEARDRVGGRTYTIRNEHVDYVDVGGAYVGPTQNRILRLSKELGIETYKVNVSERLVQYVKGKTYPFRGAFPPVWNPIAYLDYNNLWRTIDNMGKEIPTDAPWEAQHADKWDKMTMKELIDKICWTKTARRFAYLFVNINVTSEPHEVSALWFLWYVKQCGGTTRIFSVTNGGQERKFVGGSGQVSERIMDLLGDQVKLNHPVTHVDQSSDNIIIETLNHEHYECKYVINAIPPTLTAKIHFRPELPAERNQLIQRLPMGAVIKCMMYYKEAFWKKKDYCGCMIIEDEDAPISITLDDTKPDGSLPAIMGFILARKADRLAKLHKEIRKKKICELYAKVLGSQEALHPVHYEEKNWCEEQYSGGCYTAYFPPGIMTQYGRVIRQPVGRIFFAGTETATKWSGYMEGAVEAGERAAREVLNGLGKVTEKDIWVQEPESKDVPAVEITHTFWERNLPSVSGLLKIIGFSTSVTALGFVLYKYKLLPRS
PROTOCOL: Cell-free Fluorescent Monoamine Oxidase A&B Detection Assay, MAO-A
Format: biochemical
EXPERIMENTAL_CONDITIONS: IC50 MAO-A (μM), cell-free, recombinant human MAO-A
Protocol: The assay was repeated to confirm data. MAO B specific inhibitory activity and selectivity over MAO A is assayed using a commercial kit [Fluoro MAO A and B detection kit (Cell Technology Inc™)]. This kit uses a non-fluorescent detection reagent to measure H2O2 released from the conversion of an MAO A and MAO B substrate specific to its aldehyde. Furthermore, H2O2 oxidizes the detection reagent in a 1:1 stoichiometry to produce a fluorescent product (resorufin). […]
MEASURE_NAME: IC50 (µM)

compound="C#CCN(C)[C@H](C)Cc1ccc(OCc2ccccc2)cc1 [PS-RG0061]" system_name="recombinant human MAO-A (Homo sapiens)" measure_name=IC50 experimental_result=0.163

----------
SYSTEM_NAME: recombinant human MAO-A (Homo sapiens, UniProt P21397)
PROTOCOL: Cell-free Fluorescent Monoamine Oxidase A&B Detection Assay, MAO-A
Assay type: biochemical
EXPERIMENTAL_CONDITIONS: cell-free, recombinant human MAO-A; read-out: IC90 MAO-A
Structures can show the parent of a compound that is named as a salt.
# Lookup of reported IC90 keyed by entry
MEASURE_NAME: IC90 (µM)

compound=CN(CC(=O)O)[C@H](CC#N)Cc1ccc(OCc2ccc(Cl)c(Cl)c2)cc1.Cl system_name="recombinant human MAO-A (Homo sapiens, UniProt P21397)" display_unit=µM experimental_result=424
compound=C#CCN(C)CCc1ccccc1 system_name="recombinant human MAO-A (Homo sapiens, UniProt P21397)" display_unit=µM experimental_result=126
compound="C[C@H](Cc1ccc(OCc2ccc(Cl)c(Cl)c2)cc1)N(C)CC(=O)O.Cl [PS-RG0245, hydrochloride]" system_name="recombinant human MAO-A (Homo sapiens, UniProt P21397)" display_unit=µM experimental_result=99.8
compound="C[C@H](Cc1ccc(OCc2ccc3ccccc3c2)cc1)N(C)CC(=O)O [PS-RG0227, hydrochloride]" system_name="recombinant human MAO-A (Homo sapiens, UniProt P21397)" display_unit=µM experimental_result=63000
compound="COc1cccc(COc2ccc(C[C@@H](C)N(C)CC(=O)O)cc2)c1 [PS-RG0264, hydrochloride]" system_name="recombinant human MAO-A (Homo sapiens, UniProt P21397)" display_unit=µM experimental_result=78500
compound="C[C@H](Cc1ccc(OCc2ccc(Cl)cc2)cc1)N(C)CC(=O)O [PS-RG0226, hydrochloride]" system_name="recombinant human MAO-A (Homo sapiens, UniProt P21397)" display_unit=µM experimental_result=1260
